Recorded pEC50 by entry
- system: T1, human CD73 on Calu6 cells (human, UniProt P21589 27-549)
- T1 construct: whole, on cells; Endogenous CD73 of the Calu6 cell line; also called CD73 on cell membrane surface
- T1 sequence (looked up): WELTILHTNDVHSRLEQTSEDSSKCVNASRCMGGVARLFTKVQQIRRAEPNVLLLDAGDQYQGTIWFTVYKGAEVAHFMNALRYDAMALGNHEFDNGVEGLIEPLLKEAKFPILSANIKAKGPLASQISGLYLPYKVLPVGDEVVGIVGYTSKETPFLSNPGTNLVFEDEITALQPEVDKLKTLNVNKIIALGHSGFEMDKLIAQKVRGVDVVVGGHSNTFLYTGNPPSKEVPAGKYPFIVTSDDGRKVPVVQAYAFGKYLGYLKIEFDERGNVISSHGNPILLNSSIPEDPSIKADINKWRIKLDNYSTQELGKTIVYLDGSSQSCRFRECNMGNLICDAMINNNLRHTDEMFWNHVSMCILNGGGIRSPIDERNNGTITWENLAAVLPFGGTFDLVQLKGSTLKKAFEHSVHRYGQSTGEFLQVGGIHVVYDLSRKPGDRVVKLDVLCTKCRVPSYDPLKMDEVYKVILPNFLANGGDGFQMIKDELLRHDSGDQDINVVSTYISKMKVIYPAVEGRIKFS
- assay_name: FACS on Calu6 cells
A value of pEC50 is the negative decimal logarithm of a concentration given in moles per litre.

Example results:
binder	pEC50
CD73 antibody 14E4 (antibody, V domains shown, Mouse variable regions on human IgG heavy chain constant region and human kappa constant region (chimeric IgG); also called Clone 14E4) VH: QVQLQQSGPELVKPGASVKISCKASGYIFTNYYIHWVKQRPGQGLEWIGWIFPGSGNTKYSEKFKDKATLTADTSSSTAYMQLSSLTSEDSAVYFCAGLSDWGQGTTLTVSS VL: DIQMTQSPSSLSASLGERVSLTCRASQDIGDRLIWLQQEPAGTFKRLIYATSSLDSGVPKRFSGSRSGSDYSLTISSLESEDFVDYYCLQYASSPWTFGGGTKLEIK	8.59
CD73 antibody 6G8 (chimeric) (antibody, V domains shown, Mouse variable regions on human IgG heavy chain constant region and human kappa constant region (chimeric IgG); also called Clone 6G8; 6G8 Chimera) VH: QVTLKESGPGILKPSQTLSLTCSFSGFSLNTSGMGVGWIRQPSGKGLEWLAHIWWDDDKYYNPSLKSQLTISKDTSRNQVFLRIASVDTADTATYYCARRERWAWFAYWGQGTLVTVSA VL: DIVMTQSQKFMSASVGDRVSVTCKASQNVFTNVAWYQQKPGQSPKVLIYSASYRYSGVPDRFTGSGSGTDFTLTINNVQSEDLAEYFCQQYNSYPTFGSGTKLEIK	8.99
CD73 antibody 2H2 (antibody, V domains shown, also called Clone 2H2) VH: EVKLVESGGGLVQPGGSLKLSCATSGFTFSDYYMYWVRQTPEKRLEWVAYISNVGGSTYYPDTVKGRFTISRDNAKNTLYLQMSRLKSEDTAMYYCARGDGYYGYYFDVWGAGTTVTVSS VL: ENVLTQSPAIMSASPGEKVTMTCSASSSVSYMHWYQQKSGTSPKRWIYDTSKLASGVPTRFSGSGSGTSFSLTISSMEAEDAATYYCQQWSSNPYTFGGGTKLEIK	9.03

Note: attention shifts to another entry.
Q: What measured pEC50 goes with CD73 antibody 14H10 (antibody, V domains shown, Mouse variable regions on human IgG heavy chain constant region and human kappa constant region (chimeric IgG)) VH: QIQLQQSGAELARPGASVNLSCKASGYSFTSYWMQWLKQRPGQGLEWIGAIYPGDGDTRYTQKFKGKATLTADKSSSTAYMQLSSLASEDSAVYYCALFSYWGQGTLVTVSA VL: DIQMTQSPSSLSASLGERVSLTCRASQDIGSSLNWLQQEPDGTFKRLIYATSTLDSGVPKRFSGSRSGSDYSLTISSLESEDFVDYYCLQYASFPYTFGGGTKLEIK ?
Result: 8.64
